System Tested: recombinant guanylate cyclase reporter cell line (Rattus norvegicus, UniProt P19686+P20595)
Construct: expressed in transfected cells
Sequence (P19686 whole entry): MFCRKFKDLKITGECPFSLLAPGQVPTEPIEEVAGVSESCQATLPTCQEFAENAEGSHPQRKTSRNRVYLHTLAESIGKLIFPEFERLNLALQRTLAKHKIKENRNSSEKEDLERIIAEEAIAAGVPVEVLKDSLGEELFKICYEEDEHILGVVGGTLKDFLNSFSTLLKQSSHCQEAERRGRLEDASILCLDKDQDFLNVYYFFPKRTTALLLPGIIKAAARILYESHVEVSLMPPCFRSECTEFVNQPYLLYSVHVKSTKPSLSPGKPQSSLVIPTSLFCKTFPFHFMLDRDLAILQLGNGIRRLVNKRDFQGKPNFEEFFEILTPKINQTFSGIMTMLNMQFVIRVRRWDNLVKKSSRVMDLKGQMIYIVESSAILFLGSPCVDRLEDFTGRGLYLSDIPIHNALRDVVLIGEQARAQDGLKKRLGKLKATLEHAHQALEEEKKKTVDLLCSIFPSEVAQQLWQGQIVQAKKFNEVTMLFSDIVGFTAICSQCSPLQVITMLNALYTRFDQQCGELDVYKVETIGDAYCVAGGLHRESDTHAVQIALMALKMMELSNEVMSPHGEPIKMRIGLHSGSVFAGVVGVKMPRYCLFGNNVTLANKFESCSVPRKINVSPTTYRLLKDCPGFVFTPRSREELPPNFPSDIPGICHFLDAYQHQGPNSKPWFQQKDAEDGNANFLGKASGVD
Sequence (P20595 whole entry): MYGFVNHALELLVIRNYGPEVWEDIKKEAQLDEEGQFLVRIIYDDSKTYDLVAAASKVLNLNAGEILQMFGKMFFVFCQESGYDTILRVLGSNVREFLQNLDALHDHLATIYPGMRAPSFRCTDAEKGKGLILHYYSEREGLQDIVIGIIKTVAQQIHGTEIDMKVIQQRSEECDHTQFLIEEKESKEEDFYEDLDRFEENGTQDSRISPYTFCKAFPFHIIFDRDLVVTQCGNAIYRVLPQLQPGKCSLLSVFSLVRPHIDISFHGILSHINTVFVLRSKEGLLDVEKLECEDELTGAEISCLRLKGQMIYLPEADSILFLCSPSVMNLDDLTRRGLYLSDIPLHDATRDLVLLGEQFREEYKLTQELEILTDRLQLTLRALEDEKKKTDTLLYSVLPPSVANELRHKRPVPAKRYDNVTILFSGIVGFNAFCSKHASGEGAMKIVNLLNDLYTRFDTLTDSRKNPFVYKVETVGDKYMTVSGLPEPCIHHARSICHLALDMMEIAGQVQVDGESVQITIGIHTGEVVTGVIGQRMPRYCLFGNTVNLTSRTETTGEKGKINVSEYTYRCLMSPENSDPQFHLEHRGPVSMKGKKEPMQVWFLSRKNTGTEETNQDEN
Method: Effect on a recombinant guanylate cyclase reporter cell line (B-2)
Type: cell-based
Assay Conditions: in some cases mean values for individual determinations
Experimental: B-2. Effect on a Recombinant Guanylate Cyclase Reporter Cell Line The cellular effect of the inventive compounds is determined using a recombinant guanylate cyclase reporter cell line, as described in F. Wunder et al., Anal. Biochem. 339, 104-112 (2005). Representative MEC values (MEC=minimum effective concentration) for the inventive compounds are shown in the table below (in some cases as mean values for individual determinations): […]
Structures can show the parent of a compound that is named as a salt.
Metric: MEC (minimum effective concentration) (µM)

Compound	Unit Descriptor	Reported Value
CCCC(C)(N)CNC(=O)c1c(C)nn2c(OCc3c(F)ccc(F)c3F)cc(C)cc12 (single isomer, unassigned)	µM	0.2

[a] Cc1cc(OCc2c(F)ccc(F)c2F)n2nc(C)c(C(=O)Nc3cnn4ccccc34)c2c1
[b] Cc1cc(OCc2c(F)cccc2F)n2nc(C)c(C(=O)NC3c4cccc(F)c4OC3C)c2c1 (centres unmarked)
[c] Cc1cc(OCc2c(F)ccc(F)c2F)n2nc(C)c(C(=O)NCCN3CCOCC3)c2c1
[d] Cc1cc(OCc2c(F)cccc2F)n2nc(C)c(C(=O)NCC3CNC(=O)O3)c2c1 (racemic)
[ask] Put the entries in order of MEC (minimum effective concentration), starting with the largest number. When ranking, write the labels in the order the request describes.
[reply] d, c, b, a
(d: 10 µM, c: 3.0 µM, b: 1.0 µM, a: 0.3 µM)

[1] Cc1cc(OCc2c(F)cccc2F)n2nc(C)c(C(=O)NCC(N)C#N)c2c1 (racemic)
[2] Cc1cc(OCc2c(F)ccc(F)c2F)n2nc(C)c(C(=O)NC3CC(C)(C)NC(C)(C)C3)c2c1
[ask] Of 1 and 2 , which shows the smaller MEC (minimum effective concentration) value? Provide the label of your selected option as the answer.
[reply] 2
(2: 1.0 µM, 1: 3.0 µM)

[A] CCCC(C)(N)CNC(=O)c1c(C)nn2c(OCCC(C)C)cc(C)cc12 (racemic)
[B] Cc1cc(OCc2c(F)ccc(F)c2F)n2nc(C)c(C(=O)N[C@H]3CCOC3=O)c2c1
[C] Cc1cc(OCc2c(F)cccc2F)n2nc(C)c(C(=O)NNC(=O)CN3CCCCC3)c2c1
[D] Cc1cc(OCc2c(F)cccc2F)n2nc(C)c(C(=O)NCC(C)(N)CC(F)F)c2c1 (single isomer, unassigned) [Example 46]
[ask] With regard to MEC (minimum effective concentration), arrange the entries in ascending order, please. When ranking, write the labels in the order the request describes.
[reply] B, C, D, A
(B: 0.3 µM, C: 1.0 µM, D: 2.0 µM, A: 3.0 µM)

[a] CCCC(C)(N)CNC(=O)c1c(C)nn2c(OCc3c(F)cccc3F)cccc12 (racemic)
[b] Cc1cc(OCc2c(F)ccc(F)c2F)n2nc(C)c(C(=O)Nc3c(C)nn(CCO)c3C)c2c1
[c] Cc1cc(OCc2c(F)cccc2F)n2nc(C)c(C(=O)NCC(C)(N)CF)c2c1 (single isomer, unassigned) [Example 41]
[d] Cc1cc(OCc2c(F)cccc2F)n2nc(C)c(C(=O)N[C@@H]3COC[C@@H]3N)c2c1 (relative stereo)
[e] Cc1cc(OCc2c(F)cccc2F)n2nc(C)c(C(=O)NC3CCN(C)c4ccccc43)c2c1 (racemic)
[ask] Put the entries in order of MEC (minimum effective concentration), starting with the largest number. When ranking, write the labels in the order the request describes.
[reply] d, a, b, c, e
(d: 10 µM, a: 3.0 µM, b: 1.0 µM, c: 0.3 µM, e: 0.03 µM)

[A] Cc1cc(OCc2c(F)cccc2F)n2nc(C)c(C(=O)NCC3CCC(C#N)CC3)c2c1 (centres unmarked)
[B] Cc1cc(OCc2c(F)cccc2F)n2nc(C)c(C(=O)N[C@@H](CO)c3cccs3)c2c1
[ask] Could you please tell me which of these two has the higher MEC (minimum effective concentration): A or B ? Provide the label of your selected option as the answer.
[reply] A
(A: 3.0 µM, B: 0.3 µM)

[a] Cc1cc(OCc2c(F)cccc2F)n2nc(C)c(C(=O)NC3CCCc4c(N)cccc43)c2c1 (racemic)
[b] CCCC(C)(N)CNC(=O)c1c(C)nn2c(OCc3c(F)ccc(OC)c3F)cc(C)cc12 (racemic)
[ask] Of a and b , which shows the smaller MEC (minimum effective concentration) value? Provide the label of your selected option as the answer.
[reply] a

[1] Cc1cc(OCc2c(F)cccc2F)n2nc(C)c(C(=O)NN3CCN(C)CC3)c2c1
[2] Cc1cc(OCc2c(F)cccc2F)n2nc(C)c(C(=O)NC34CCC(C(=O)O)(CC3)CC4)c2c1
[ask] Of 1 and 2 , which shows the smaller MEC (minimum effective concentration) value? Provide the label of your selected option as the answer.
[reply] 1

[P] Cc1cc(OCc2c(F)cccc2F)n2nc(C)c(C(=O)NOCCO)c2c1 [Example 64, trifluoroacetate]
[Q] Cc1cc(OCc2c(F)cccc2F)n2nc(C)c(C(=O)NC3CC(=O)N(C)c4ccccc43)c2c1 (racemic) [Example 77, trifluoroacetate]
[ask] Could you please tell me which of these two has the higher MEC (minimum effective concentration): P or Q ? Provide the label of your selected option as the answer.
[reply] P

---

Method: Pharmacokinetic parameters following intravenous administration in rats (B-6)
Type: in vivo, male Wistar rats
Metric: AUCnormal (kg·h/L)

Molecule	Unit Descriptor	Reported Value
Cc1cc(OCc2c(F)ccc(F)c2F)n2nc(C3CC3)c(C(=O)NCC(C)(N)CCC(F)(F)F)c2c1 (single isomer, unassigned; enantiomer b)	kg·h/L	0.32
CCCC(C)(N)CNC(=O)c1c(C)nn2c(OCc3c(F)cccc3F)cc(C)cc12 (single isomer, unassigned)	kg·h/L	0.53
CCCC(C)(N)CNC(=O)c1c(C2CC2)nn2c(OCc3c(F)cccc3F)cc(C)cc12 (single isomer, unassigned)	kg·h/L	0.37
Cc1cc(OCc2c(F)cccc2F)n2nc(C)c(C(=O)NCC(C)(N)CCC(F)(F)F)c2c1 (single isomer, unassigned)	kg·h/L	0.49
CCCC(C)(N)CNC(=O)c1c(C2CC2)nn2c(OCc3c(F)ccc(F)c3F)cc(C)cc12 (single isomer, unassigned; enantiomer b)	kg·h/L	0.44
Cc1cc(OCc2c(F)ccc(F)c2F)n2nc(C)c(C(=O)NCC(C)(N)CCC(F)(F)F)c2c1 (single isomer, unassigned; enantiomer b)	kg·h/L	0.45

---

System Tested: recombinant guanylate cyclase reporter cell line (Rattus norvegicus, UniProt P19686+P20595)
Construct: expressed in transfected cells
Method: Effect on a recombinant guanylate cyclase reporter cell line (B-2)
Format: cell-based
Assay Conditions: in some cases mean values for individual determinations
Where a name gives a salt, the structure may show the parent alone.
Metric: MEC (minimum effective concentration) (µM)

// known answers, use as guide
Compound	Metric	Unit Descriptor	Reported Value
Cc1cc(OCc2c(F)cccc2F)n2nc(C)c(C(=O)NC[C@@H]3CCCCN3)c2c1	MEC (minimum effective concentration)	µM	3.0
Cc1cc(OCc2c(F)cccc2F)n2nc(C3CC3)c(C(=O)NCC(C)(N)CC(F)F)c2c1 (single isomer, unassigned) [Example 57]	MEC (minimum effective concentration)	µM	0.3
Cc1cc(OCc2c(F)cccc2F)n2nc(C)c(C(=O)NCC3CSCCN3)c2c1 (racemic)	MEC (minimum effective concentration)	µM	1.0
Cc1cc(OCc2c(F)cccc2F)n2nc(C)c(C(=O)NC[C@H]3CC[C@H](C(=O)O)CC3)c2c1	MEC (minimum effective concentration)	µM	3.0
Cc1cc(OCc2c(F)cccc2F)n2nc(C)c(C(=O)NCCCCCC#N)c2c1	MEC (minimum effective concentration)	µM	1.0

[1] Cc1cc(OCc2c(F)cccc2F)n2nc(C)c(C(=O)NCC3CCc4ccccc4N3)c2c1 (racemic)
[2] Cc1cc(OCc2c(F)ccc(F)c2F)n2nc(C)c(C(=O)Nc3cnn(CC(F)(F)F)c3)c2c1
[ask] Of 1 and 2 , which shows the smaller MEC (minimum effective concentration) value? Provide the label of your selected option as the answer.
[reply] 2

[P] Cc1cc(OCc2c(F)cccc2F)n2nc(C)c(C(=O)NC3CCC(C)(C)c4ccccc43)c2c1 (racemic)
[Q] Cc1cc(OCc2c(F)cccc2F)n2nc(C)c(C(=O)NCC(C)(N)CCCF)c2c1 (single isomer, unassigned) [Example 44]
[ask] Of P and Q , which shows the smaller MEC (minimum effective concentration) value? Provide the label of your selected option as the answer.
[reply] Q
(Q: 0.3 µM, P: 1.0 µM)

[1] Cc1cc(OCc2c(F)cccc2F)n2nc(C)c(C(=O)NCC(F)(F)CN)c2c1
[2] Cc1cc(OCc2c(F)ccc(F)c2F)n2nc(C)c(C(=O)NCc3ccccc3-n3ccnc3)c2c1
[ask] Could you please tell me which of these two has the higher MEC (minimum effective concentration): 1 or 2 ? Provide the label of your selected option as the answer.
[reply] 1

[a] Cc1cc(OCc2c(F)cccc2F)n2nc(C)c(C(=O)NCCS(N)(=O)=O)c2c1
[b] Cc1cc(OCc2c(F)cccc2F)n2nc(C)c(C(=O)NCC(C)(N)C(F)(F)F)c2c1 (racemic)
[ask] Could you please tell me which of these two has the higher MEC (minimum effective concentration): a or b ? Provide the label of your selected option as the answer.
[reply] a
(a: 10 µM, b: 1.0 µM)

[1] Cc1cc(OCc2c(F)cccc2F)n2nc(C)c(C(=O)NNC(=O)CN3CCCC3=O)c2c1 [Example 175, trifluoroacetate]
[2] Cc1cc(OCc2c(F)cccc2F)n2nc(C)c(C(=O)NC(CN)c3cccc(Br)c3)c2c1 (racemic)
[3] Cc1cc(OCc2c(F)cccc2F)n2nc(C)c(C(=O)NCC(N)c3cccc(OC(F)F)c3)c2c1 (racemic)
[4] Cc1cc(OCc2c(F)cccc2F)n2nc(C)c(C(=O)NC3CCOc4c(Cl)cccc43)c2c1 (racemic)
[ask] With regard to MEC (minimum effective concentration), arrange the entries in ascending order, please. When ranking, write the labels in the order the request describes.
[reply] 4, 2, 3, 1
(4: 0.3 µM, 2: 1.0 µM, 3: 3.0 µM, 1: 10 µM)

[a] Cc1cc(OCc2c(F)cccc2F)n2nc(C)c(C(=O)NCC(N)c3csc4ccccc34)c2c1 (racemic)
[b] CCC(C)(N)CNC(=O)c1c(C2CC2)nn2c(OCc3c(F)cccc3F)cc(C)cc12 (single isomer, unassigned)
[c] COC(=O)[C@@H](N)CCCCNC(=O)c1c(C)nn2c(OCc3c(F)cccc3F)cc(C)cc12
[ask] Put the entries in order of MEC (minimum effective concentration), starting with the largest number. When ranking, write the labels in the order the request describes.
[reply] a, c, b
(a: 10 µM, c: 3.0 µM, b: 0.3 µM)

[P] Cc1cc(OCc2c(F)cccc2F)n2nc(C)c(C(=O)NCCC(C)(C)N)c2c1
[Q] Cc1cc(OCc2c(F)cccc2F)n2nc(C)c(C(=O)NCC(C)(N)CCF)c2c1 (racemic) [Example 48]
[ask] Could you please tell me which of these two has the higher MEC (minimum effective concentration): P or Q ? Provide the label of your selected option as the answer.
[reply] P

[1] Cc1cc(OCc2c(F)ccc(F)c2F)n2nc(C)c(C(=O)Nc3c(C)nn(Cc4ccc(F)cc4)c3C)c2c1
[2] Cc1cc(OCc2c(F)cccc2F)n2nc(C)c(C(=O)NC3CCOc4c(C)cc(F)cc43)c2c1 (racemic)
[ask] Could you please tell me which of these two has the higher MEC (minimum effective concentration): 1 or 2 ? Provide the label of your selected option as the answer.
[reply] 2
